Tested on: Plasmodium berghei
TEST: Screen against P. berghei liver stage (PbLuc), transformed with Luciferase, at 2uM
Assay type: functional, HepG2
TEST CONDITIONS: tested at 2 uM
In all, about 68,000 compounds went through this assay and about 2,700 (4%) showed an effect of 50% or more. Only a selection was taken, and strong results are over-represented in it overall.
So I've got a bunch of compounds here, and I need their INHIBITION values.
Please state the figure in %; there is no need to write the unit.

Exercise: # get_value(readout='INHIBITION', item= Cc1noc(C(C)N2CCN(CCn3ccccc3=O)CC2)n1 (stereo not given) )
Key: 25.78

Exercise: Okay, and CC(C)C(C)(C#N)NC(=O)Cn1cc(Cl)cn1 (stereo not given) ?
Key: 26.74

Exercise: Okay, and CCc1nccn1CCC(=O)N1CCN(c2ccccc2C)CC1C (stereo not given) ?
Key: -12.03

Exercise: Okay, and Fc1ccc2c(c1)C1(CCNCC1)CC2NC1CC1 (stereo not given) ?
Key: 21.32

Exercise: Okay, and Cc1cccc(CN2CCc3ncnc(-c4ccsc4)c3CC2)n1 ?
Key: -1.33

Exercise: Okay, and Cc1[nH]c2ccc(CNc3cc(C(=O)NC(C)C)ccn3)cc2c1C ?
Key: 15.46

Exercise: Okay, and N#Cc1cccc(CN2Cc3nccn3CC(COCC3CC3)C2)c1 (stereo not given) ?
Key: -17.39

Exercise: Okay, and Cn1cc(CN2CCOC[C@H]2c2nc(C(C)(C)C)co2)c2ccccc21 ?
Key: 50.17

Exercise: Okay, and CC(=O)N(C)Cc1cccc(NC(=O)c2cnn(C)c2C)c1 ?
Key: -7.28

Exercise: Okay, and CC(C)(C)CC(=O)N1CC[C@@H]2[C@H](CC1)N(S(C)(=O)=O)CCS2(=O)=O ?
Key: -16.93

Exercise: Okay, and c1ccc2c(c1)C(NC1CCCC1)CC21CCNCC1 (stereo not given) ?
Key: 53.81

Exercise: Okay, and CN1CCS(=O)(=O)[C@@H]2CCN(C(=O)c3ccccc3)CC[C@@H]21 ?
Key: 71.83

Exercise: Okay, and CCCN1CCCn2c(nc(CNC(=O)c3ccsc3)cc2=O)C1 ?
Key: -2.19

Exercise: Okay, and COc1cccc(CC(=O)N2CCCC2c2nc(C)c(C)c(O)n2)c1 (stereo not given) ?
Key: 55.74

Exercise: Okay, and Cc1ccccc1N1CC(C)N(C(=O)CCn2cccn2)CC1=O (stereo not given) ?
Key: 51.08

Exercise: Okay, and O=C(c1cccnc1)N1CCCC1c1cc[nH]n1 (stereo not given) ?
Key: 40.31

Exercise: Okay, and CC1CN(C)c2ccccc2CN1C(=O)c1cc(C#N)cn1C (stereo not given) ?
Key: 3.49

Exercise: Okay, and O=C1[C@@H]2CCN(Cc3ccoc3)C[C@@H]2OCCN1Cc1cccnc1 ?
Key: -32.67

Exercise: Okay, and CC(C)(C)c1coc([C@@H]2COCCN2Cc2ccccc2)n1 ?
Key: 18.4

Exercise: Okay, and CCCN1C[C@@H]2CC[C@H]1CN(Cc1cccc(O)c1)C2 ?
Key: -1.63

Exercise: Okay, and CCCNc1ccc(C(=O)NCCc2cccc(OC)c2)cn1 ?
Key: 19.09

Exercise: Okay, and COc1ccc(CCCN2C(=O)O[C@@H]3CN(C4CCOCC4)C[C@@H]32)cc1 ?
Key: 51.81

Exercise: Okay, and COc1ccc(C(=O)N2CC[C@@H]3[C@H](CC2)N(C)CCS3(=O)=O)cc1 ?
Key: -17.39

Exercise: Okay, and Cc1nc(C2CCCN2C(=O)Cc2ccc3c(c2)OCO3)nc(O)c1C (stereo not given) ?
Key: 22.39

Exercise: Okay, and CNC(=O)Nc1cc(-c2ccccc2C)nn1CCO ?
Key: -3.51

Exercise: Okay, and COc1cccc(CC(=O)N2CCCC2c2nc(C)c(F)c(O)n2)c1 (stereo not given) ?
Key: 52.82

Exercise: Okay, and O=C1[C@@H]2CCN(C3CCOCC3)C[C@@H]2OCCN1Cc1cccnc1 ?
Key: 4.08

Exercise: Okay, and COc1c(CNCCNC(=O)c2ccccc2F)c(C)nn1C ?
Key: 67.69

Exercise: Okay, and Cc1ncc(CNC2CC(=O)N(CCc3cccc(Cl)c3)C2)n1C (stereo not given) ?
Key: -15.29

Exercise: Okay, and Cc1nc(C2CCCN2C(=O)Cc2ccc(F)cc2)nc(O)c1C (stereo not given) ?
Key: 46.57

Exercise: Okay, and Cc1ccc(C(C)NC(=O)Cc2c(C)nc3c(c2C)c(=O)[nH]n3C)o1 (stereo not given) ?
Key: -30.5

Exercise: Okay, and CCN1CC2(CC1=O)CN(Cc1ccco1)CCN(C(=O)C(C)C)C2 (stereo not given) ?
Key: -47.39

Exercise: Okay, and CC(C)(C)c1coc([C@@H]2COCCN2Cc2c[nH]c3ccccc23)n1 ?
Key: 27.44

Exercise: Okay, and COCCNc1nc(NCCc2ccccc2)nc2nccnc12 ?
Key: -20.55

Exercise: Okay, and CC(C)C(C)(C#N)NC(=O)Cn1cc(-c2ccccc2)cn1 (stereo not given) ?
Key: -4.26
